# Test system: muscarinergic receptors
# Design: species or system CFY rat
# measurementContext: 1.5 nM (3H) QNB, 25° C., pH 7.5, 60 minutes; non-specific binding with 10^-5 M atropin
Listing: Inhibition, % (binding of 3H QNB) of selected compounds
State the answer as a number, implicitly in %.

- CN1CCN(C2=Nc3ccccc3Nc3ccncc32)CC1 [Example 1]: 4.48
- CN1CCN(C2=Nc3cccnc3Nc3ccc(Cl)cc32)CC1 [Example 10]: 62.08
- CN1CCN(C2=Nc3ccccc3[Se]c3ccccc32)CC1 [Example 19]: 78.31
- Cc1ccc2c(c1)C(N1CCN(C)CC1)=Nc1cccnc1N2 [Example 11]: 67.3

In plain terms, CN1CCN(C2=Nc3cccnc3N(C=O)c3ccccc32)CC1 [Example 17] has a documented Inhibition, % (binding of 3H QNB) of 43.38

In plain terms, CN1CCN(C2=Nc3ccccc3Sc3ccc(Cl)cc32)CC1 [Clothiapine, reference compound] has a documented Inhibition, % (binding of 3H QNB) of 38.05

In plain terms, CN1CCN(C2=Nc3cnccc3Sc3ccccc32)CC1 [Example 18] has a documented Inhibition, % (binding of 3H QNB) of 57.61

###

# testName: Catalepsy Test (extrapyramidal effects)
# Format: in vivo
# measurementContext: catalepsy for doses above / cataleptic effect starting from
parameter: dose at which catalepsy appears

- CN1CCN(C2=Nc3cc(Cl)ccc3Nc3ccccc32)CC1 [Clozapine, reference compound]: ≥ 20 mg/kg
- CN1CCN(C2=Nc3ccccc3Nc3ccncc32)CC1: above 40 mg/kg
- CN1CCN(C2=Nc3ccccc3Oc3ncccc32)CC1.O=C(O)/C=C\C(=O)O: ≥ 20 mg/kg
- CN1CCN(C2=Nc3cccnc3Sc3ccc(Cl)cc32)CC1.O=C(O)/C=C/C(=O)O: above 40 mg/kg
